B1: EEHEE_rd4_0003 (parent)
chain: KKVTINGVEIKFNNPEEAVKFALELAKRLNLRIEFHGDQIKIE

- Variants of: B1
- procedure.summary: folding stability dG (cDNA display proteolysis); higher = more stable
- conditions.used: PBS, room temperature
This section presents variants with their documented folding stability dG values.

changes | folding stability dG [kJ/mol]
N14A | 9.42
I5E | 6.54
F35Q | 7.48
I42Y | 6.71
E16V | 10.6
F35P | 5.49
V8L | 10.5
F12E | 3.79
E43Y | 14.4
N6P | 6.56
I40F | 7.45
R28E | 8.69
E16S | 10.6
V3Q | 6.67
E24D | 10.3
E24R | 10.7
L31H | 5.84
K20V | 9.21
L25D | 1.85
K2A | 10.3
V8Y | 11.8
Q39G | 10.6
R32H | 9.36
E16N | 10.2
V8C | 14.9
I33F | 8.3
N30R | 10.9
G37N | 10.1
H36L | 12
E9C | 14.8
V3K | 6.58
A22T | 8.38
F21K | 6.94
K41I | 13.5
I5H | 8.08
A26H | 6.17
A22R | 4.85
K41W | 11.9
D38N | 10.9
E17R | 9.04
R28W | 11.2
G37V | 9.97
V3E | 7.77
E16Y | 11.3
K27W | 10.3
K27F | 11
L25C | 11.8
N6C | 17.6
K20M | 10.2
N6A | 10.1
L23K | 9.07
E43W | 14.4
R32S | 9.07
L31S | 7.11
T4G | 6.73
I40S | 6
H36N | 10.8
A18P | 6.86
K2I | 14.3
E34S | 11.6
V3M | 8.88
A22W | 11.2
P15G | 10.6
E34A | 9.57
R32E | 6.85
D38S | 9.69
L29V | 7.4
R32M | 8.66
A26I | 9.61
E24Q | 10.8
L31P | 3.12
